- assay_explanation: NCI Yeast Anticancer Drug Screen. Data for the wt1 strain (AID 149);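 also: 0% = growth of vehicle-treated wt1 cultures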
- setup_conditions: S. cerevisiae wt1 strain (SPY 50644) growth inhibition; at 3.7 µM; active compounds read high
The panel holds about 79,000 compounds, 15% with a hit somewhere; the sample as a whole holds those more often.
Could you please report measured growth inhibition for the items listed next?
Reply numerically in %, unit not repeated.

Query: Output measured growth inhibition for this item: COC(=O)C1c2cc3c(c(O)c2C(O)CC1(C)O)C(=O)c1c(O)cc2c(c1C3=O)OC1OC2(C)C(O)C(N(C)C)C1O (centres undefined)
Reply: 1

Query: Read the entry OCC(O)C(O)CO (centres undefined) (tested in a mixture with another compound) and write its reported growth inhibition.
Reply: -4

Query: Tell us which growth inhibition value is on record for C[C@]12CCc3nonc3C1CC[C@@H]1C2CC[C@]2(C)C(=O)CCC12 (some centres undefined)
Reply: -2

Query: Item CCCCN(CCCC)CC(C(C)=O)C(c1ccccc1)c1c(O)c2ccccc2oc1=O (centres undefined) : provide growth inhibition
Reply: -1

Query: Answer with reported growth inhibition of CC(C)(C)c1cc([N+](=O)[O-])cc([N+](=O)[O-])c1O
Reply: -23

Query: // fetch growth inhibition given entry O=C(O)C1C2CCC(C2)C1c1ccccc1 (centres undefined)
Reply: -2

Query: Give the value of growth inhibition reported for the following: Oc1cccc2cccnc12
Reply: 95

Query: Tell us which growth inhibition value is on record for CCN(CCCl)c1cc(CN(C)C)cc(NC(=O)c2ccc(C(=O)Nc3cc(CN(C)C)cc(N(CC)CCCl)c3)cc2)c1
Reply: 20

Query: Give recorded growth inhibition. COc1cc(O)c2c(O)c3c(c4c2c1[C@]1(C4)C(C)=CCCC1(C)C)[C@H](O)[C@@]1(O)CC(=O)C(C(N)=O)=C(O)[C@@]1(O)C3=O
Reply: 56

====

- assay_explanation: NCI Yeast Anticancer Drug Screen. Data for the mlh1 rad18 strain (AID 175)
- setup_conditions: S. cerevisiae mlh1 rad18 strain growth inhibition; at 5.0 µM (retest, dose inferred, filed as 0.5); active compounds read high
The panel holds about 79,000 compounds, 15% with a hit somewhere; the sample as a whole holds those more often.
Tag: met if measured growth inhibition is not below 10%, not met if it is.

Query: Textbook exercise: given the entry CC(=O)OC1C2(CC3N4C(=O)C5(CO)SSC4(CC31O)C(=O)N5C)OC(C)C(C)(C)C2=O (centres undefined) , state whether its growth inhibition is greater than or equal to 10%.
Reply: met

Query: Please tell me: is the compound FC(F)(F)C1(C(F)(F)F)O[Te]2(OC1(C(F)(F)F)C(F)(F)F)OC(C(F)(F)F)(C(F)(F)F)C(C(F)(F)F)(C(F)(F)F)O2 at or over 10% in terms of growth inhibition?
Reply: met

Query: Could you tell me if the measured growth inhibition of CCC(=O)C(CCN1CCC2(CCCc3ccccc32)CC1)(c1ccccc1)c1ccccc1 reaches 10% or more?
Reply: not met

Query: hey, is growth inhibition for this one >= 10%? CC12CCC(O)CC1CCC1C2CCC2(C)C1CC1CC(=O)OC12 (centres undefined)
Reply: met

Query: Entry OCC(O)C(O)CO (centres undefined) (tested in a mixture with another compound) : is its growth inhibition no less than 10%?
Reply: not met

Query: Could you verify whether the entry CC1C2C=CC1C(c1c3ccc(=O)c(O)c-3oc3c(O)c(O)ccc13)C2C(=O)O (centres undefined) shows growth inhibition of no less than 10%?
Reply: not met

Query: Would you say COc1ccccc1[As]=O (centres undefined) shows growth inhibition at minimum 10%?
Reply: met

====

- assay_explanation: NCI Yeast Anticancer Drug Screen. Data for the bub3 strain (AID 167)
- setup_conditions: S. cerevisiae bub3 mutant strain, at 50.0 µM (retest, dose inferred, filed as 5.0)
This is part of a sample that, as a whole, favours compounds with a hit. Of some 79,000 tested, about 15% had one in any assay. Calls of active or inactive are those of the source. Cut-off read from the data, not from the text of the source: active = growth inhibition above about 70%; inactive = the rest.
Could you please pick one outcome from this set? active, inactive

Query: Could you check what this test reported for CCCCCCCCCCCCN=C(N)N ?
Reply: active

Query: Hi, do you know how C[CH2][Sn]1([CH2]C)[c]2ccccc2Oc2cccc[c]21 came out in this test?
Reply: active

Query: Per the records of this test, what outcome belongs to CC(=O)C(CN(C)C)C(c1ccccc1)c1c(O)c2ccccc2oc1=O (configuration not stated) ?
Reply: inactive

Query: Hello, I am checking results. What call was entered for CN1CSC(=S)N(C)C1 ?
Reply: active

Query: Fill in: this test's call for Oc1cccc2nc3ccccc3nc12 is ___
Reply: inactive

Query: Please share the test call associated with Cc1c2ccccc2cc2ccccc12 .
Reply: active

Query: Status in this test for CC(CN1CCCCCCC1)C(C#N)(c1ccccc1)c1ccccc1 (configuration not stated) ?
Reply: inactive

Query: Tell me the assay call for O=[N+]([O-])O.O=[N+]([O-])O.[NH-]C1CCCCC1[NH-].[Pt+2] (configuration not stated) please.
Reply: active

Query: Tell me the assay call for O=[N+]([O-])c1ccc(SC2CCCCCCC2Cl)c([N+](=O)[O-])c1 (configuration not stated) please.
Reply: active

Query: # lookup: test call for COC([CH2][Hg][n]1cnc2c1c(=O)n(C)c(=O)n2C)CN1C(=O)c2ccccc2S1(=O)=O (configuration not stated)
Reply: active

Query: Status in this test for CC[C@H](C)c1occ2c(O)c(C(=O)O)c(=O)cc-2c1C ?
Reply: active

Query: Tell me the assay call for O=c1oc2ccccc2c(O)c1C(c1ccc(OCc2ccccc2)cc1)c1c(O)c2ccccc2oc1=O please.
Reply: active

Query: What outcome does the record of this test show for O=C(CCCC(=O)NNC(=O)Nc1cccc(S(=O)(=O)F)c1)NNC(=O)Nc1cccc(S(=O)(=O)F)c1 ?
Reply: inactive

Query: Which outcome was assigned to C=CCC[CH2][Sn]([c]1ccccc1)([c]1ccccc1)[c]1ccccc1 in this test?
Reply: active

Query: Hello, I am checking results. What call was entered for O=c1oc2ccccc2c(O)c1C(C/C(CCN1CCCC1)=N\Nc1ccccc1)c1ccccc1 (configuration not stated) ?
Reply: inactive

Query: Status in this test for Cc1ccc2c(c1)SP(=S)(c1ccccc1)N2 (configuration not stated) ?
Reply: active

Query: For O=c1oc2ccccc2c(O)c1C(c1ccc2c(c1)Cc1ccccc1-2)c1c(O)c2ccccc2oc1=O , which call appears in the assay record?
Reply: active

Query: Check the results log: what was the call for CCOC(=O)C1CC12c1ccccc1-c1ccccc12 (configuration not stated) ?
Reply: inactive

Query: // return assay outcome for C[C@H](N)C(=O)N[C@@H]1[C@H]2C(=C(O)C[C@@H](O)[C@@H]2O)C(=O)O[C@]1(C)C(Cl)Cl
Reply: inactive

Query: Please indicate how the test categorized CC(O)([CH2][Hg][Cl])C(O)[CH2][Hg][Cl] (configuration not stated) .
Reply: active

Query: For CN(C)c1ccc(C2N(Cc3ccc(N(CCCl)CCCl)cc3Cl)CCCN2Cc2ccc(N(CCCl)CCCl)cc2Cl)cc1 , what call appears in the results of this test?
Reply: active

Query: Called result for Oc1c(-c2ccccc2)cc(-[n+]2c(-c3ccccc3)cc(-c3ccccc3)cc2-c2ccccc2)cc1-c1ccccc1
Reply: active

Query: Which result was noted for this compound in the test: [Cl][Hg][Cl].c1cnccn1
Reply: active

Query: Each compound tested received a call. Report the one for COc1cc(C(c2c(O)c3ccccc3oc2=O)c2c(O)c3ccccc3oc2=O)cc(OC)c1O .
Reply: inactive

Query: Please state the recorded outcome for this compound: C1CC[N-]CC1.C1CC[N-]CC1.N#CO.[Ag]
Reply: active

Query: Outcome? CC(C)=[CH][Sb]([Br])([CH]=C(C)C)([CH]=C(C)C)[CH]=C(C)C
Reply: inactive

Query: Hello, I am checking results. What call was entered for CS/C([S-])=N/N=C(C)C.CS/C([S-])=N/N=C(C)C.[Ni+2] ?
Reply: active

Query: Name the outcome recorded for CSC(=Nc1ccccc1)N(c1ccccc1)c1nc(=[N+](C)C)ss1 in the assay.
Reply: active

Query: Please let me know the test result on file for N#C[S-].[Ce+3].c1ccc(-c2ccccn2)nc1.c1ccc(-c2ccccn2)nc1.c1ccc(-c2ccccn2)nc1 .
Reply: active

Query: Record request — test call for C[CH2][Pb]([CH2]C)([CH2]C)[n]1cnc2ccccc21
Reply: active

Query: What call does the record list for CCOP(=O)(OCC)Oc1ccc([N+](=O)[O-])cc1 ?
Reply: inactive

Query: Would you mind telling me which call this test gave CC1(O)CC([CH2][Hg][I])OC([CH2][Hg][I])C1 (configuration not stated) ?
Reply: active

Query: I'd appreciate the recorded outcome for CCC[CH2][Pb]([CH2]CCC)([O]C(C)=O)[O]C(C)=O from this test.
Reply: active

Query: Please indicate how the test categorized CC[N-]c1nnnn1CC.[Au+].c1ccc([PH+](c2ccccc2)c2ccccc2)cc1 .
Reply: active

Query: I would be grateful if you could indicate the recorded call for CCC(=O)O[C@H]1CC[C@H]2[C@@H]3CCC4=C/C(=N/OC(=O)c5cccc6c(=O)c7ccccc7[nH]c56)CC[C@]4(C)[C@H]3CC[C@]12C .
Reply: inactive

Query: I'd appreciate the recorded outcome for CCC[CH2][Sn]1([CH2]CCC)[O]CC(c2ccccn2)C[O]1 from this test.
Reply: active

Query: # fetch the recorded call for CCc1cc2c(cc1O)C(C)(C)CCC2(C)C here
Reply: inactive

Query: State the result this test recorded for C[N+]1(CCCl)CC[N+](C)(CCCl)CC1 (configuration not stated) .
Reply: active

Query: What is the recorded call for this compound in the test? CC(=O)OC1C(O)C(C)OC(OC2C(OC(=O)C3CCC4C(C3)OC3(CC(OC(=O)/C=C/c5ccccc5)C(C)CO3)C43CO3)OC(C)C(O)C2OC(C)=O)C1O (configuration not stated)
Reply: active

Query: Recorded call for CCN(CC)CC(=O)c1ccc2c(ccc3ccccc32)c1 ?
Reply: active

Query: What did this assay record as the result for O=C(O)c1ccccc1[Se][Se]c1ccccc1C(=O)O ?
Reply: active

Query: How was C[CH2][Sn]([CH2]C)([O]C(C)=O)[O][Sn]([CH2]C)([CH2]C)[O]C(C)=O classified in this test?
Reply: active
